For each of the molecules below, state its IC50.
molecular target: EF2K (Homo sapiens, UniProt O00418); construct: host or cells: LN-229 cell lysate; experiment: EF2K cell-based assay (P-EF2 AlphaLISA, 2-deoxyglucose stimulated MCF10A cells); conditions: 2.5 mM 2-deoxyglucose stimulated, P-EF2 Thr56, pIC50 = -log IC50 (M), read-out: eEF2K_C_PThr56 pIC50 (converted)
Sequence (O00418 whole entry): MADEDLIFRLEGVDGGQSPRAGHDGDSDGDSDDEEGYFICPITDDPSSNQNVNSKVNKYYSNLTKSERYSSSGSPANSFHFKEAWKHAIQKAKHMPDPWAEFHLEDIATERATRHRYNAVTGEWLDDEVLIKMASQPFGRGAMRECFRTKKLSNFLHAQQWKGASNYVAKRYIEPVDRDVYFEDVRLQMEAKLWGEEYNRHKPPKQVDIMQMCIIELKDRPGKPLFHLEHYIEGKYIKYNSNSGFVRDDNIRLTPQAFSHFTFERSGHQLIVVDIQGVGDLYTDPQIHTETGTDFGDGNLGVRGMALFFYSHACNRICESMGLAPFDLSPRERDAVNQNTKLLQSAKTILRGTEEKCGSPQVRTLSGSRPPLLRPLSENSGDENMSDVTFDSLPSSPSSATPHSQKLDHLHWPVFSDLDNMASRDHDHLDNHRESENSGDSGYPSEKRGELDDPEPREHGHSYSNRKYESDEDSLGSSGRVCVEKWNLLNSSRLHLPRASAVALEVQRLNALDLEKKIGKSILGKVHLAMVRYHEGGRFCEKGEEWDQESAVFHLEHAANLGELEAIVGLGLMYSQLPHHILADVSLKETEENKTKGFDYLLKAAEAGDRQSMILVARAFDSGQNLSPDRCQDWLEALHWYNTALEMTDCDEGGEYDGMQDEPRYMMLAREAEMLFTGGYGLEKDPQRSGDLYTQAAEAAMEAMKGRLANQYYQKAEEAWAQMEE

Quick one: IC50 of CN1CCCN(C)c2ccc(cc2)-c2ccnc(n2)Nc2cccc(c2)CN2CCN(CC1=O)C(C(=O)OCc1ccccc1)C2 (stereo not drawn) ?
> 3.02e-05 M

Quick one: IC50 of O=C1CN2CCN(CC2)Cc2cccc(c2)Nc2nccc(n2)-c2ccc(nc2)CN(CC2CCCO2)CCN1 (stereo not drawn) ?
~8.13e-07 M

Quick one: IC50 of O=C1CN2CCN(CC2)Cc2cccc(c2)Nc2nccc(n2)-c2ccc(nc2)N2CC(O)CC2CCN1 (single isomer, unassigned) [Compound 89] ?
> 3.02e-05 M

Quick one: IC50 of CS(=O)(=O)N1CCNC(=O)CN2CCN(CC2)Cc2cccc(c2)Nc2nccc(n2)-c2ccc(nc2)C1 ?
> 1e-05 M

Quick one: IC50 of CN1CCCN(C)c2ccc(cn2)-c2ccnc(n2)Nc2cccc(c2)CN2CCN(CC2)C(=O)C1 ?
> 3.02e-05 M

Quick one: IC50 of O=C1CN2CCN(CC2)C(=O)c2cccc(c2)Nc2nccc(n2)-c2ccc(nc2)NCCCN1 ?
> 3.02e-05 M

Quick one: IC50 of CN1CCCN(C)c2ccc(cn2)-c2ccnc(n2)Nc2cccc(c2)CN2CCN(CC1=O)CC2CO (single isomer, unassigned) [Compound 52] ?
> 3.02e-05 M

Quick one: IC50 of COC(=O)C1CN2CCN1Cc1cccc(c1)Nc1nccc(n1)-c1ccc(nc1)N(C)CCCN(C)C(=O)C2 (stereo not drawn) ?
> 3.02e-05 M

Quick one: IC50 of CN1CCCNC(=O)CN2CCN(CC2=O)Cc2cccc(c2)Nc2nccc(n2)-c2ccc1nc2 ?
> 3.02e-05 M

###

For each of the molecules below, state its remaining activity at 1 µM.
target: Vps34 (PIK3C3 lipid kinase) (Homo sapiens, UniProt Q8NEB9); assay: Biochemical Vps34 lipid kinase assay (ADP-Glo); conditions: 1 h, single dose 1 μM compound; residual activity compared to control (DMSO); read-out: VPS34_1microM_% of cntrl
Sequence (Q8NEB9 whole entry, species assumed): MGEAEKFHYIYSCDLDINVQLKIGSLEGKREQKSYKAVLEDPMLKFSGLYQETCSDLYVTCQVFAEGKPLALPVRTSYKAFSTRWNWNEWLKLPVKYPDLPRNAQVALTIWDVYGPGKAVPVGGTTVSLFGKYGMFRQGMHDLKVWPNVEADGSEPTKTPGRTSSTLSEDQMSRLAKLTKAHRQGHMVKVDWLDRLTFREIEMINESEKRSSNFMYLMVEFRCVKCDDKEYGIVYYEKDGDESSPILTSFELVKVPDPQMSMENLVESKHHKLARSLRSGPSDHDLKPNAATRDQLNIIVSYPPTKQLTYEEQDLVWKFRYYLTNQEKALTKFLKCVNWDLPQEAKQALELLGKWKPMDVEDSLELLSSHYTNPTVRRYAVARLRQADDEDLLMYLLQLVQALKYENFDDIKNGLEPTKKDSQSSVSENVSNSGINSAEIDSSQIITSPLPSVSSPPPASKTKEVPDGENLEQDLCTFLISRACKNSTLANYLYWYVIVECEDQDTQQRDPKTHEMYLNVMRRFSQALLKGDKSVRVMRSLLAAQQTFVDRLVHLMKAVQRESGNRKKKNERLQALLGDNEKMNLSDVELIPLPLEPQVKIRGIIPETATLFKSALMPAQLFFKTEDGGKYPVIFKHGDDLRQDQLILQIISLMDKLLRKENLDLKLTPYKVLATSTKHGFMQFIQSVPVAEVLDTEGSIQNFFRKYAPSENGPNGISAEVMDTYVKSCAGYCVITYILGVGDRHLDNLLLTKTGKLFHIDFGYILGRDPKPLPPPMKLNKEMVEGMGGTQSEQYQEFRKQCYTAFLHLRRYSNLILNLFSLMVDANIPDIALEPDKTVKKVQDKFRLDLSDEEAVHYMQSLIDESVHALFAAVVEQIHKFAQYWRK
Just the number in %, nothing appended.

Quick one: remaining activity at 1 µM of CN(C)CCOCC1CN2CCN1Cc1cccc(c1)Nc1nccc(n1)-c1ccc(nc1)N(C)CCCN(C)C(=O)C2 (stereo not shown) [Compound 108] ?
25.5

Quick one: remaining activity at 1 µM of CN1CCN(C)c2ccc(cn2)-c2ccnc(n2)Nc2cccc(c2)CN2CCNC(CC1=O)C2 (stereo not shown) [Compound 72] ?
11.5

Quick one: remaining activity at 1 µM of CN1CCCN(C)c2ccc(cn2)-c2ccnc(n2)Nc2cccc(c2)N2CCN(CC2)CC1=O [Compound 110] ?
7.68

Quick one: remaining activity at 1 µM of N#Cc1ccc2cc1CN1CCN(CC1)CC(=O)NCCCNc1ccc(cn1)-c1ccnc(n1)N2 [Compound 14] ?
3.37

Quick one: remaining activity at 1 µM of CN1CCCN(C)c2ccc(cn2)-c2ccnc(n2)Nc2cccc(c2)CN2CCN(C)C(CC1=O)C2 (stereo not shown) [Compound 129] ?
9.26

Quick one: remaining activity at 1 µM of O=C1CNCCCNc2ccc(cn2)-c2ccnc(n2)Nc2cccc(c2)CN2CCN1CC2 [Compound 112] ?
6.25

Quick one: remaining activity at 1 µM of CN1CCCN(C)c2ccc(cn2)-c2ccnc(n2)Nc2cccc(c2)CN2CCN(CC2)C1=O [Compound 76] ?
8.71

Quick one: remaining activity at 1 µM of O=C1CN2CCN(CC2)Cc2cccc(c2)Nc2nccc(n2)-c2ccc(nc2)NCCCN1 [Compound 31] ?
8.47

Quick one: remaining activity at 1 µM of O=C1CC2CN(CCN2)Cc2cccc(c2)Nc2nccc(n2)-c2ccc(nc2)NCCCN1 (stereo not shown) [Compound 70] ?
7.38

Quick one: remaining activity at 1 µM of O=C1CN2CCN(CC2)Cc2cccc(c2)Nc2nccc(n2)-c2ccc(nc2)CN(C(=O)C(F)(F)F)CCN1 [Compound 132] ?
7.12

Quick one: remaining activity at 1 µM of N#CCCN1CCCNC(=O)CN2CCN(Cc3cccc(c3)Nc3nccc(n3)-c3ccc1nc3)C(CO)C2 (stereo not shown) [Compound 54] ?
4.02

Quick one: remaining activity at 1 µM of NS(=O)(=O)N1CCNC(=O)CN2CCN(CC2)Cc2cccc(c2)Nc2nccc(n2)-c2ccc(nc2)C1 [Compound 134] ?
4.78

Quick one: remaining activity at 1 µM of O=C1CN2CCN(CC2)Cc2cc(ccc2Cl)Nc2nccc(n2)-c2ccc(nc2)NCCCN1 [Compound 120] ?
7.29

Quick one: remaining activity at 1 µM of CN1CCCN(C)c2ccc(cn2)-c2ccnc(n2)Nc2cccc(c2)CN2CCN(CC1=O)CC2COCCN1CCOCC1 (stereo not shown) [Compound 98] ?
33.9

Quick one: remaining activity at 1 µM of O=C1CN2CCN(CC2)Cc2cccc(c2)Nc2nccc(n2)-c2ccc(nc2)CN(CC2CCOCC2)CCN1 [Compound 39] ?
30.7

Quick one: remaining activity at 1 µM of CN1CCCNc2ccc(cn2)-c2ccnc(n2)Nc2cccc(c2)CN2CCN(CC1=O)C(=O)C2 [Compound 127] ?
19.2
